# Tested on: LNCaP
# test.protocol: Cytotoxicity against human LNCAP cells expressing androgen receptor T877A point mutant assessed as reduction in cell viability after 48 hrs by MTS assay
# Assay type: functional, cell-based
This listing pairs compounds with measured log10(IC50).
The base-10 logarithm of IC50, taken with IC50 in nM, is what appears here.

given.smiles	readout	measured
CN(C)CCCN1C(=O)c2ccc3c4c(c(NCCCCNc5cc6c7c(ccc8c7c5C(=O)N(CCCN(C)C)C8=O)C(=O)N(CCCN(C)C)C6=O)cc(c24)C1=O)C(=O)N(CCCN(C)C)C3=O	log10(IC50)	3.29
CN(C)CCCN1C(=O)c2ccc3c4c(c5[nH]c(=O)c(=O)[nH]c5c(c24)C1=O)C(=O)N(CCCN(C)C)C3=O	log10(IC50)	4.01
CN(C)CCCN1C(=O)c2ccc3c4c(c(NCCCCCCCNc5cc6c7c(ccc8c7c5C(=O)N(CCCN(C)C)C8=O)C(=O)N(CCCN(C)C)C6=O)cc(c24)C1=O)C(=O)N(CCCN(C)C)C3=O	log10(IC50)	3.82
CN(C)CCCn1c(=O)c2ccc3c(=O)n(CCCN(C)C)c(=O)c4c5[nH]c6ccccc6[nH]c5c(c1=O)c2c34.Cl.Cl	log10(IC50)	2.15

Switching to the query record.
Quick note, log10(IC50) for `CN(C)CCN1C(=O)c2ccc3c4c(c(C#Cc5ccc(CN(C)C)c(O)c5)cc(c24)C1=O)C(=O)N(CCN(C)C)C3=O` landed at 2.77

---

This listing pairs molecules with measured ΔTm.
# Tested on: Quadruplex DNA
# test.protocol: Stabilization of 5'-FAM/3'-TAMRA labelled AR3 G-quadruplex oligonucleotide (unknown origin) assessed as change in melting temperature t1/2 at 1 uM after 16 hrs in presence of 100 mM K+ by FRET assay
# Type: nucleic-acid assay
Lab note: write values as number then unit, every time.

Worked cases, answers included:
given.smiles	ΔTm
CN(C)CCN1C(=O)c2ccc3c4c(c(NCCc5ccc(O)c(CN(C)C)c5)cc(c24)C1=O)C(=O)N(CCN(C)C)C3=O	10 °C
CN(C)CCCN1C(=O)c2ccc3c4c(c(NCCCCCCCNc5cc6c7c(ccc8c7c5C(=O)N(CCCN(C)C)C8=O)C(=O)N(CCCN(C)C)C6=O)cc(c24)C1=O)C(=O)N(CCCN(C)C)C3=O	17 °C
CN(C)CCCN1C(=O)c2ccc3c4c(c(NCCCCNc5cc6c7c(ccc8c7c5C(=O)N(CCCN(C)C)C8=O)C(=O)N(CCCN(C)C)C6=O)cc(c24)C1=O)C(=O)N(CCCN(C)C)C3=O	19.7 °C

Quick note, ΔTm for `CN(C)CCN1C(=O)c2ccc3c4c(c(C#Cc5ccc(CN(C)C)c(O)c5)cc(c24)C1=O)C(=O)N(CCN(C)C)C3=O` landed at 9 °C

Quick note, ΔTm for `CN(C)CCN1C(=O)c2ccc3c4c(c(NCC(=O)Nc5ccc(O)c(CO)c5)cc(c24)C1=O)C(=O)N(CCN(C)C)C3=O` landed at 9.3 °C

---

# Test system: DU-145
# test.protocol: Cytotoxicity against human DU145 cells assessed as reduction in cell viability after 48 hrs by MTS assay
# Format: functional, cell-based
# study.conditions: DU-145, 48 h
This listing pairs compounds with measured log10(IC50).
The base-10 logarithm of IC50, taken with IC50 in µM, is what appears here.

Worked cases, answers included:
given.smiles	log10(IC50)
CN(C)CCCN1C(=O)c2ccc3c4c(c(NCCCCCCCNc5cc6c7c(ccc8c7c5C(=O)N(CCCN(C)C)C8=O)C(=O)N(CCCN(C)C)C6=O)cc(c24)C1=O)C(=O)N(CCCN(C)C)C3=O	0.34
CN(C)CCN1C(=O)c2ccc3c4c(c(C#Cc5ccc(CN(C)C)c(O)c5)cc(c24)C1=O)C(=O)N(CCN(C)C)C3=O	-0.26
CN(C)CCCN1C(=O)c2ccc3c4c(c(NCCCCNc5cc6c7c(ccc8c7c5C(=O)N(CCCN(C)C)C8=O)C(=O)N(CCCN(C)C)C6=O)cc(c24)C1=O)C(=O)N(CCCN(C)C)C3=O	0.53
CN(C)CCN1C(=O)c2ccc3c4c(c(NCCc5ccc(O)c(CN(C)C)c5)cc(c24)C1=O)C(=O)N(CCN(C)C)C3=O	-0.52
CN(C)CCCNc1cc2c3c(ccc4c3c1C(=O)N(CCCN(C)C)C4=O)C(=O)N(CCCN(C)C)C2=O	0.59

Switching to the query record.
Noted log10(IC50) for `CN(C)CCCn1c(=O)c2ccc3c(=O)n(CCCN(C)C)c(=O)c4c5[nH]c6ccccc6[nH]c5c(c1=O)c2c34.Cl.Cl` , tested on DU-145: -1.10

---

# System: LNCaP
# test.protocol: Cytotoxicity against human LNCAP cells expressing androgen receptor T877A point mutant assessed as reduction in cell viability after 48 hrs by MTS assay
# Assay type: functional, cell-based
This listing pairs molecules with measured pIC50.
Please report pIC50 as the negative decimal logarithm of the molar concentration, giving only the number.

                               given_smiles  readout  measured
0  CN(C)CCN1C(=O)c2ccc3c4c(c(NCC(=O)Nc5ccc(O)c(CO)c5)cc(c24)C1=O)C(=O)N(CCN(C)C)C3=O    pIC50      5.52
1  CN(C)CCCNc1cc2c3c(ccc4c3c1C(=O)N(CCCN(C)C)C4=O)C(=O)N(CCCN(C)C)C2=O    pIC50      5.47

Switching to the query record.
Quick note, pIC50 for `CN(C)CCN1C(=O)c2ccc3c4c(c(NCCc5ccc(O)c(CN(C)C)c5)cc(c24)C1=O)C(=O)N(CCN(C)C)C3=O` landed at 6.41

---

# System: DU-145
# test.protocol: Cytotoxicity against human DU145 cells assessed as reduction in cell viability after 48 hrs by MTS assay
# Assay type: functional, cell-based
# study.conditions: DU-145, 48 h
readout: IC50

>>> df
                               given_smiles  tested_on  measured
0  CN(C)CCCN1C(=O)c2ccc3c4c(c5[nH]c(=O)c(=O)[nH]c5c(c24)C1=O)C(=O)N(CCCN(C)C)C3=O     DU-145   > 10 µM
1  CN1CCN(c2cc3c4c(c(NCCO)cc5c4c2C(=O)N(CCO)C5=O)C(=O)N(CCO)C3=O)CC1     DU-145   > 10 µM

Switching to the query record.
Noted IC50 for `CN(C)CCN1C(=O)c2ccc3c4c(c(NCC(=O)Nc5ccc(O)c(CO)c5)cc(c24)C1=O)C(=O)N(CCN(C)C)C3=O` , tested on DU-145: > 10 µM

The reported measurements were obtained from ChEMBL document CHEMBL4411261.
